Molecular target: Steroidogenic factor 1 (Homo sapiens) (UniProt Q13285)
Sequence (Q13285 whole entry, looked up): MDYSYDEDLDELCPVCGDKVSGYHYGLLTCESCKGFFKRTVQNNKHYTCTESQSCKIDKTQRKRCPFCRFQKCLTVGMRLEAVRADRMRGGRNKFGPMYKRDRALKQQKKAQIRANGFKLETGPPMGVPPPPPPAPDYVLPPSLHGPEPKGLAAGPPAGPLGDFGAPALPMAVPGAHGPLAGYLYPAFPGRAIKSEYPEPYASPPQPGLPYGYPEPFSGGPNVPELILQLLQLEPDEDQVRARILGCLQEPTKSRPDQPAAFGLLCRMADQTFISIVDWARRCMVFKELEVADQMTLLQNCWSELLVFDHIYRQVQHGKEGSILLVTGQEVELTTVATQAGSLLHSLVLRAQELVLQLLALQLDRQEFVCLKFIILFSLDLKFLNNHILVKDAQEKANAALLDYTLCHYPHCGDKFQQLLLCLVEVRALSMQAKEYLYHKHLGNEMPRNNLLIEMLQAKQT
Test: SF1 (NR5A1) inverse agonists, counter-screen for LRH-1 inverse agonist project, cell-based, luminescence, high throughput (AID 651614);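 also: cells cotransfected with StAR promoter reporter and SF1 expression vector; 0% = vehicle on cells with receptor and 100% = vehicle on cells lacking receptor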
Conditions: cell-based SF1 luciferase reporter, at 3.6 µM
The source made the active and inactive calls. Rule as the data show it: active = inhibition above about 44%; inactive = the rest.
Classes used: YES for active, NO for inactive

Molecule: CC(Cl)C(=O)Nc1ncc(C(F)(F)F)cc1Cl (stereo not given)
Discrete label: YES

Molecule: CCCCCCCCn1c2c(c(=N)c3c1CCC3)CCCC2
Discrete label: YES

Molecule: Clc1ccc(-n2ncc3c(N4CCCCCC4)ncnc32)cc1
Discrete label: YES

Molecule: COc1ccc(NC(=O)COC(=O)Cc2c[nH]c3ccccc23)cc1Cl
Discrete label: NO

Molecule: COc1ccc(N2C(=O)C(Cl)=C(N3CCOCC3)C2=O)cc1
Discrete label: NO

---

Biological target: Oxysterols receptor LXR-beta (Homo sapiens) (UniProt P55055)
Sequence (P55055 whole entry, looked up, the tested form may be a part): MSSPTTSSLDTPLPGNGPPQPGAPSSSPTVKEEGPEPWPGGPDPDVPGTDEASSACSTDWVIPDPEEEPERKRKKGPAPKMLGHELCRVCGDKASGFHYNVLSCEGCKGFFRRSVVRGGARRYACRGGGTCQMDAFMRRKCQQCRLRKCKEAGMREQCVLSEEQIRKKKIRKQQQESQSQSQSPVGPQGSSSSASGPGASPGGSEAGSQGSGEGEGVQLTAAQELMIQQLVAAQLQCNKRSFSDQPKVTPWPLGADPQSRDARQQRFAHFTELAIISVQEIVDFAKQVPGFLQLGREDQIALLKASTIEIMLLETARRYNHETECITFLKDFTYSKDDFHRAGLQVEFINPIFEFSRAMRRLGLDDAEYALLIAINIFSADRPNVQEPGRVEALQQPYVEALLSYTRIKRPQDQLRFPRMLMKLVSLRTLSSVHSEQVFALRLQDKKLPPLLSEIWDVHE
Assay: LXR agonists, Gal4 luciferase reporter, confirmation, counter-screen for hcDAF-12 agonist project, cell-based, luminescence, HEK293, H. contortus campaign (AID 743027)
Conditions: HEK293 Gal4-LXR tk-luc reporter, 24 h, at 6.8 µM, stronger effect = higher value, normalized: DMSO 0%, positive control 100%
Some of the results follow.
activation: recorded values
Assay metric: activation (%)

Molecule: O=C(COc1cccc(Cl)c1)NCc1ccccc1
Output unit: %
Observed result: -0.12

Molecule: O=c1c2c(nc3cc(-c4cccc(Cl)c4)[nH]n13)CCCC2
Output unit: %
Observed result: 1.76

Molecule: Cc1ccc(-n2cc3ccc([N+](=O)[O-])cc3n2)cc1
Output unit: %
Observed result: 2.14

Molecule: CCS(=O)(=O)N1Cc2ccccc2CC1C(=O)Nc1nc2ccc(F)cc2s1 (configuration not stated)
Output unit: %
Observed result: 0.39

Molecule: c1ccc(Cc2c(-c3ccco3)nc3c4ccccc4ccn23)cc1
Output unit: %
Observed result: 1.44

Molecule: COc1ccc(C2COC(=O)C2=N)c(NC(=O)c2ccccc2)c1 (configuration not stated)
Output unit: %
Observed result: -0.25

Molecule: Clc1ccc(Nc2nc(-c3cccs3)cs2)nc1
Output unit: %
Observed result: 2.13

Molecule: O=C(O)c1ccccc1CSc1nc2ccccc2s1
Output unit: %
Observed result: 0.24

Molecule: Cn1c(-c2ccco2)nc2cc3ccccc3cc21
Output unit: %
Observed result: 2.33

Molecule: NC(=O)c1c(NC(=O)c2ccccc2)sc2c1CCCC2
Output unit: %
Observed result: 1.21

Molecule: NC(=O)Nc1ccccc1C(=O)NCCc1ccccc1
Output unit: %
Observed result: 0.34

Molecule: O=C(c1cnn(-c2ccc(Cl)cc2)c1)c1ccccc1O
Output unit: %
Observed result: 1.48

Molecule: Cc1ccc(NC(=O)c2csc3c2CCCC3)cc1
Output unit: %
Observed result: 1.06

Molecule: COc1ccc(-c2c3c(=O)n(C)c(=O)n(C)c3cn2-c2cccc(OC)c2)cc1
Output unit: %
Observed result: -0.23

Molecule: Cn1c(=NC(=O)c2ccco2)sc2cccc(F)c21
Output unit: %
Observed result: 1.46

Molecule: O=c1[nH]c(CCl)nc2cc(-c3ccc(Cl)cc3)sc12
Output unit: %
Observed result: 0.52

Molecule: Cc1ccc(NC(=O)c2cc3ccccc3o2)cc1
Output unit: %
Observed result: 1.5

Molecule: COc1ccccc1-c1nnc(NC(=O)c2ccc3ncsc3c2)o1
Output unit: %
Observed result: 0.28

Molecule: Cc1ccc(-c2nc3ccccc3[nH]2)cc1N
Output unit: %
Observed result: 2.07

Molecule: Cc1ccccc1Nc1nc(N)nc(CSc2ccccc2)n1
Output unit: %
Observed result: 1.61

Molecule: Oc1ccccc1-c1cc(-c2ccc(Cl)cc2)n[nH]1
Output unit: %
Observed result: 1.85

Molecule: CCCOc1ccc(C(=O)NCCc2ccccc2)cc1
Output unit: %
Observed result: 1.59

Molecule: Cc1noc(C)c1/C=N/Nc1ccc2ccccc2n1
Output unit: %
Observed result: 1.54

Molecule: N#CC1=C(N)Oc2c(sc3ccccc23)C1c1ccco1 (configuration not stated)
Output unit: %
Observed result: -0.13

Molecule: Cc1cccc(NC(=O)c2ccc3ccccc3n2)n1
Output unit: %
Observed result: 1.06

Molecule: Cc1ccc(C(=O)O/N=C(\N)c2ccccn2)cc1Cl
Output unit: %
Observed result: 1.52

Molecule: CC(C)(C)NC(=O)C(c1ccncc1)N(C(=O)CNC(=O)c1ccco1)c1ccc2c(c1)OCO2 (configuration not stated)
Output unit: %
Observed result: -0.43

Molecule: Cc1ccc(NN=Nc2nc3c([nH]2)c(=O)n(C)c(=O)n3C)cc1
Output unit: %
Observed result: -0.08

Molecule: COc1ccc(C2CC(c3cccs3)=Nc3ccccc3S2)cc1OC (configuration not stated)
Output unit: %
Observed result: -0.03

Molecule: COc1ccc(CNC(=O)c2ccc3oc(C(C)C)nc3c2)cc1
Output unit: %
Observed result: 0.72

Molecule: Cc1cccc(NC(=O)Nc2ccc3c(c2)OCO3)n1
Output unit: %
Observed result: 0.92

Molecule: NC(=O)c1ccccc1N=Cc1ccc2ccccc2c1
Output unit: %
Observed result: 0.6

Molecule: CCc1cc2c(=O)c(-c3ccon3)c(N)oc2cc1OC
Output unit: %
Observed result: 0.84

Molecule: COc1ccc(C2=NOC(COC(=O)c3ccc4ccccc4n3)C2)cc1 (configuration not stated)
Output unit: %
Observed result: 0.05

Molecule: NNC(=O)C1CCCn2c1nc1sc3c(c1c2=O)CCCC3 (configuration not stated)
Output unit: %
Observed result: -0.2

Molecule: O=C(c1cc(-c2ccccc2O)on1)N1CCCC1
Output unit: %
Observed result: 0.82

Molecule: c1ccc(-c2cc(-c3ccccc3)[nH]n2)cc1
Output unit: %
Observed result: 1.43

---

Biological target: Protein phosphatase methylesterase 1 (Homo sapiens) (UniProt Q9Y570)
Sequence (Q9Y570 whole entry, looked up): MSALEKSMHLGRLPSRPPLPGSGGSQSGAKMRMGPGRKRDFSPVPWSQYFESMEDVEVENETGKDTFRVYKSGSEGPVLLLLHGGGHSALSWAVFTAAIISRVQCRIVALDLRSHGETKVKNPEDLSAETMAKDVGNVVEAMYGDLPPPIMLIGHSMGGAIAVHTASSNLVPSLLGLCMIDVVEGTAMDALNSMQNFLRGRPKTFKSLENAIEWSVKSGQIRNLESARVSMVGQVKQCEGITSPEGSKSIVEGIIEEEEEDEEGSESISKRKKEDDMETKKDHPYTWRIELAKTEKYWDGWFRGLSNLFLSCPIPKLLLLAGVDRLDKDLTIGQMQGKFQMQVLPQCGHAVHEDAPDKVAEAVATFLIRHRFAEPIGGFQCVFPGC
Experiment: PME-1 inhibitor activity retest, confirmation, biochemical, fluorescence polarization, FP-Rh probe, triplicate (AID 2171);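 also: 0% = enzyme with DMSO and 100% = wells lacking PME-1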
Conditions: recombinant PME-1, FP-Rh probe fluorescence polarization; at 5.9 µM; stronger effect = higher value
inhibition: recorded values
Assay metric: inhibition (%)

Substance smiles: CCc1ccc(S(=O)(=O)/N=C2/C=C(Sc3ncn[nH]3)C(=O)c3ccccc32)cc1
Assay metric: inhibition
Output unit: %
Observed result: 52.9
//
Substance smiles: Oc1c(Br)cc(Br)cc1CNc1cnc2ccccc2c1
Assay metric: inhibition
Output unit: %
Observed result: 34.8
//
Substance smiles: Cc1ccc(-c2c(C(=O)N/N=C/c3c[nH]c4ccccc34)nnn2-c2nonc2N)cc1
Assay metric: inhibition
Output unit: %
Observed result: 21.9
//
Substance smiles: O=c1[nH]c(C2CCN(S(=O)(=O)c3ccc(C(F)(F)F)cc3)CC2)nc2c1nnn2Cc1ccc(F)cc1
Assay metric: inhibition
Output unit: %
Observed result: 79.1
//
Substance smiles: O=C(N=Nc1c(O)[nH]c2ccccc12)c1cccs1
Assay metric: inhibition
Output unit: %
Observed result: 42.6
//
Substance smiles: CCCCn1c(/C=N/Nc2nc3ccccc3[nH]2)nc2ccccc21
Assay metric: inhibition
Output unit: %
Observed result: 61.3
//
Substance smiles: Nc1[nH]n(-c2ccccc2)c(=O)c1N=Nc1ccc2c(c1)OCO2
Assay metric: inhibition
Output unit: %
Observed result: 39.8
//
Substance smiles: Cc1c(C(=O)OC/C(O)=C(\C#N)c2nc3ccccc3[nH]2)oc2ccccc12
Assay metric: inhibition
Output unit: %
Observed result: -5.29
//
Substance smiles: O=C(COC(=O)/C=C/c1cccs1)Nc1nc(-c2cccc(Br)c2)cs1
Assay metric: inhibition
Output unit: %
Observed result: 14.9
//
Substance smiles: Cc1cccc(NC(=S)N/N=C/c2c[nH]c3ccccc23)c1
Assay metric: inhibition
Output unit: %
Observed result: 33.3
//
Substance smiles: COc1ccc(Nc2ncnc3sc(-c4ccccc4)cc23)cc1OC
Assay metric: inhibition
Output unit: %
Observed result: 6.82
//
Substance smiles: CCCCN(CC)CCCNC(=O)c1cn(CC)c2ccc(S(=O)(=O)N3CCc4ccccc4C3)cc2c1=O
Assay metric: inhibition
Output unit: %
Observed result: 59.1
//
Substance smiles: N#CCC(=O)c1ccccc1Oc1ccc(Cl)cc1
Assay metric: inhibition
Output unit: %
Observed result: 13.4
//
Substance smiles: COc1ccccc1NC(=O)c1sc2nc(-c3ccco3)ccc2c1N
Assay metric: inhibition
Output unit: %
Observed result: 71.6

---

Biological target: Nuclear receptor subfamily 5 group A member 2 (Homo sapiens) (UniProt O00482)
Sequence (O00482 whole entry, looked up): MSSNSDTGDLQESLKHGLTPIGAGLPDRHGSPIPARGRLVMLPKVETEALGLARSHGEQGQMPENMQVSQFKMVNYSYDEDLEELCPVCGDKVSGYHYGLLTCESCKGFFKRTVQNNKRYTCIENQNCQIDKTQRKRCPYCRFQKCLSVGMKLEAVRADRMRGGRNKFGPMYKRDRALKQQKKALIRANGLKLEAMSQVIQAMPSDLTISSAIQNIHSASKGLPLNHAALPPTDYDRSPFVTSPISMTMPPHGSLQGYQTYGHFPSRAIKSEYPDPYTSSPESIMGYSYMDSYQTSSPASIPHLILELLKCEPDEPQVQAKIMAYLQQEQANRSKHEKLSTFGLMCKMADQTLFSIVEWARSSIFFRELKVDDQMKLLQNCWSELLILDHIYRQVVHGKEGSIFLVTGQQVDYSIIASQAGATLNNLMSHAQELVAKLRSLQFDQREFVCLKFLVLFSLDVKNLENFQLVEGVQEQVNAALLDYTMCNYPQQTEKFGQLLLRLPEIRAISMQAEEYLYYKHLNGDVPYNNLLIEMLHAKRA
Assay: LRH-1 (NR5A2) inverse agonists, retest, confirmation, cell-based, luminescence (AID 651613);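 also: HEK293T cells co-transfected with LRH-1 and StAR promoter luciferase reporter; 0% = vehicle wells and 100% = parental cells lacking receptor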
Conditions: cell-based LRH-1 luciferase reporter, inverse agonism; at 3.6 µM; stronger effect = higher value
Decision: inhibition compared against 60%; not below it gives T, below it gives F.

Compound: O=C(c1ccccc1Br)N1CCN(c2ccc([N+](=O)[O-])c(N3CCOCC3)c2)CC1
Target: Nuclear receptor subfamily 5 group A member 2 (Homo sapiens) (UniProt O00482)
Discrete label: F

Compound: CCC(C)(C)c1ccc(OCCCC[n+]2cccc(C)c2C)c(C(C)(C)CC)c1
Target: Nuclear receptor subfamily 5 group A member 2 (Homo sapiens) (UniProt O00482)
Discrete label: T

Compound: CC(=O)Nc1ccccc1OCC(=O)c1cc(C)n(Cc2cccs2)c1C
Target: Nuclear receptor subfamily 5 group A member 2 (Homo sapiens) (UniProt O00482)
Discrete label: F

Compound: COc1ccc(-c2c(C)cc3oc(=O)cc(-c4ccccc4)c3c2C)cc1
Target: Nuclear receptor subfamily 5 group A member 2 (Homo sapiens) (UniProt O00482)
Discrete label: F

Compound: CS(=O)(=O)N1CCN(c2ccccc2NC(=O)c2ccc([N+](=O)[O-])o2)CC1
Target: Nuclear receptor subfamily 5 group A member 2 (Homo sapiens) (UniProt O00482)
Discrete label: F

Compound: CCOc1ccc(C(=O)Nc2cnn(Cc3ccc(Cl)c(Cl)c3)c2)cc1
Target: Nuclear receptor subfamily 5 group A member 2 (Homo sapiens) (UniProt O00482)
Discrete label: T

Compound: COc1ccc(CCNC(=O)COC(=O)Cc2ccccc2[N+](=O)[O-])cc1
Target: Nuclear receptor subfamily 5 group A member 2 (Homo sapiens) (UniProt O00482)
Discrete label: T

Compound: O=C(Nc1cccnc1)c1ccc([N+](=O)[O-])o1
Target: Nuclear receptor subfamily 5 group A member 2 (Homo sapiens) (UniProt O00482)
Discrete label: T

Compound: O=C(CSc1nnc(Cc2cccs2)n1Cc1ccco1)Nc1ccc(Cl)cc1Cl
Target: Nuclear receptor subfamily 5 group A member 2 (Homo sapiens) (UniProt O00482)
Discrete label: F

Compound: COc1ccc(NC(=O)/C(Cl)=C(/Cl)S(=O)Cc2ccccc2)cn1 (stereo unspecified)
Target: Nuclear receptor subfamily 5 group A member 2 (Homo sapiens) (UniProt O00482)
Discrete label: T

Compound: COCc1cc(C)n(CC(=O)Nc2ccc(N3CCOCC3)c(Cl)c2)c(=O)c1C#N
Target: Nuclear receptor subfamily 5 group A member 2 (Homo sapiens) (UniProt O00482)
Discrete label: F

Compound: CC(=NNC(=S)Nc1cccc(Cl)c1)c1ccccn1
Target: Nuclear receptor subfamily 5 group A member 2 (Homo sapiens) (UniProt O00482)
Discrete label: T

Compound: Brc1ccc(C2=Nn3c(nnc3-c3n[nH]c4c3CCC4)SC2)cc1
Target: Nuclear receptor subfamily 5 group A member 2 (Homo sapiens) (UniProt O00482)
Discrete label: F

Compound: Cc1cc(C)c(C#N)c(Sc2nc(C)c([N+](=O)[O-])c(C)c2C#N)n1
Target: Nuclear receptor subfamily 5 group A member 2 (Homo sapiens) (UniProt O00482)
Discrete label: F

Compound: COc1ccc(S(=O)(=O)N2CCCN(CC(=O)Nc3ccc(OC)c(Cl)c3)CC2)cc1
Target: Nuclear receptor subfamily 5 group A member 2 (Homo sapiens) (UniProt O00482)
Discrete label: T

Compound: CC(=O)Nc1ccc(NC(=O)COC(=O)c2c(C)nn(-c3ccccc3)c2C)cc1
Target: Nuclear receptor subfamily 5 group A member 2 (Homo sapiens) (UniProt O00482)
Discrete label: F

Compound: CCOc1ccc(CCNC(=O)COC(=O)CCC(=O)c2cccs2)cc1OCC
Target: Nuclear receptor subfamily 5 group A member 2 (Homo sapiens) (UniProt O00482)
Discrete label: F

Compound: COc1cccc(CNc2nc3cc(-c4cnn(Cc5ccccc5)c4)sc3c(=O)n2C)c1
Target: Nuclear receptor subfamily 5 group A member 2 (Homo sapiens) (UniProt O00482)
Discrete label: F

Compound: CC(=O)Nc1ccc(NC(=O)CSc2nnc(NC(=O)C3CC3)s2)cc1
Target: Nuclear receptor subfamily 5 group A member 2 (Homo sapiens) (UniProt O00482)
Discrete label: F

Compound: O=C(c1ccco1)N1CCCC(N2CCN(c3cccc(C(F)(F)F)c3)CC2)C1 (stereo unspecified)
Target: Nuclear receptor subfamily 5 group A member 2 (Homo sapiens) (UniProt O00482)
Discrete label: F

Compound: Cc1nc(CNS(=O)(=O)c2ccc(Oc3ccccc3)cc2)cs1
Target: Nuclear receptor subfamily 5 group A member 2 (Homo sapiens) (UniProt O00482)
Discrete label: F

Compound: CC(=O)C(C(C)=O)c1c(Cl)c(O)c(O)c2c(C(=O)c3ccccc3)coc12
Target: Nuclear receptor subfamily 5 group A member 2 (Homo sapiens) (UniProt O00482)
Discrete label: T

Compound: O=C(Nc1cccc2ccccc12)c1ccc([N+](=O)[O-])o1
Target: Nuclear receptor subfamily 5 group A member 2 (Homo sapiens) (UniProt O00482)
Discrete label: T

Compound: Cc1ccccc1C(=O)N/N=C/c1ccc([N+](=O)[O-])s1
Target: Nuclear receptor subfamily 5 group A member 2 (Homo sapiens) (UniProt O00482)
Discrete label: T

Compound: COc1ccc(NC(=O)c2sc(=O)n(Cc3cccc(C(F)(F)F)c3)c2C)cc1OC
Target: Nuclear receptor subfamily 5 group A member 2 (Homo sapiens) (UniProt O00482)
Discrete label: T

Compound: CCCc1cc(=O)oc2cc(OCC(=O)NCCc3c[nH]c4ccc(OC)cc34)ccc12
Target: Nuclear receptor subfamily 5 group A member 2 (Homo sapiens) (UniProt O00482)
Discrete label: F

Compound: Cc1ccnc(NC(=O)C2CCN(S(=O)(=O)c3c(C)c(C)cc(C)c3C)CC2)c1
Target: Nuclear receptor subfamily 5 group A member 2 (Homo sapiens) (UniProt O00482)
Discrete label: F

Compound: CN(C(=O)c1cccc(NC(=O)Cc2ccc(NC(=O)C3CCCN(C(=O)CCc4ccccc4)C3)cc2)c1)C1CCCCC1 (stereo unspecified)
Target: Nuclear receptor subfamily 5 group A member 2 (Homo sapiens) (UniProt O00482)
Discrete label: F
